Would you kindly list Binding data (Percentage inhibition) Histamine H1 (0.1 μM) for each of these molecules?
measurement-target: human recombinant histamine H1 receptor (Homo sapiens, UniProt P35367)
Construct: expressed in transfected cells; host or cells: CHO-K1
Sequence (P35367 whole entry): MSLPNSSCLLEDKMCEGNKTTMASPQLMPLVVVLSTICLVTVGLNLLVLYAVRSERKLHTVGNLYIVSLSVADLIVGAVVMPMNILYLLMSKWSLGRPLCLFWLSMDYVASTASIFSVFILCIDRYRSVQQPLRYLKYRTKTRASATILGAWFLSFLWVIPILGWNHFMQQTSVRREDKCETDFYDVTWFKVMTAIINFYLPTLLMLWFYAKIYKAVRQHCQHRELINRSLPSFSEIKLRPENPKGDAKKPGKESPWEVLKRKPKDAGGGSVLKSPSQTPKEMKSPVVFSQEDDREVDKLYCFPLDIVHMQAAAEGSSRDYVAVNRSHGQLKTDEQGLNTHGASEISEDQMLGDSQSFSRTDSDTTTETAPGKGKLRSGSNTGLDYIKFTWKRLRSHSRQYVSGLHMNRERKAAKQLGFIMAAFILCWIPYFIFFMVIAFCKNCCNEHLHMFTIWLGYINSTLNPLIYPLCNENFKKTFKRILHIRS
assay-explanation: Histamine H1 radioligand binding ([3H]Pyrilamine)
measurement-parameters: 0.1 μM compound; 0.1 µM
Description: To evaluate in radioligand binding assays the activity of compounds of the invention, human recombinant histamine H1 receptor expressed in Chinese hamster ovary (CHO) K1 cells (De Backer, M. et al, Biochem. Biophys. Res. Comm. 197(3):1601, 1993) in a modified Tris-HCl buffer (50 mM Tris-HCl, pH 7.4, 2 mM MgCl2, 100 mM NaCl, 250 mM Sucrose) was used. […] Receptor proteins were filtered and washed, the filters were then counted to determine [^3H]Pyrilamine specifically bound. […]
Response body: numeric value in %, unit text excluded.

Binding data (Percentage inhibition) Histamine H1 (0.1 μM) reported for this molecule Cc1ccc2c(c1)c1c(n2CC2(O)CCCc3cnccc32)CCN(C)C1 (single isomer, unassigned) [ii-74a] : 1

Binding data (Percentage inhibition) Histamine H1 (0.1 μM) reported for this molecule Cc1ccc2c(c1)c1c(n2CC2(O)CCCc3ccncc32)CCN(C)C1 (single isomer, unassigned) [ii-113b] : 6

Binding data (Percentage inhibition) Histamine H1 (0.1 μM) reported for this molecule Cc1ccc2c(c1)c1c(n2CC2(O)CCCc3cnccc32)CCN(C)C1 (single isomer, unassigned) [ii-74b] : 11

Binding data (Percentage inhibition) Histamine H1 (0.1 μM) reported for this molecule Cc1ccc2c(c1)c1c(n2CC2(O)CCCc3ncccc32)CCN(C)C1 (single isomer, unassigned) [ii-112a] : 4

Binding data (Percentage inhibition) Histamine H1 (0.1 μM) reported for this molecule Cc1ccc2c(c1)c1c(n2CC2(O)CCCc3ccncc32)CCN(C)C1 (single isomer, unassigned) [ii-113a] : 13

Binding data (Percentage inhibition) Histamine H1 (0.1 μM) reported for this molecule Cc1ccc2c(c1)c1c(n2CC2(O)CCCc3ncccc32)CCN(C)C1 (single isomer, unassigned) [ii-112b] : 13

* * *

measurement-target: human recombinant adrenergic α2A receptor (Homo sapiens, UniProt P08913)
Construct: expressed in transfected cells; host or cells: insect Sf9 cells
assay-explanation: Adrenergic α2A radioligand binding ([3H]MK-912)
measurement-parameters: 0.1 μM compound; read-out: Percentage inhibition of ligand binding, Adrenergic α2A
Experimental: To evaluate in radioligand binding assays the activity of compounds of the invention, human recombinant adrenergic α2A receptor expressed in insect Sf9 cells (Uhlen, S. et al, J. Pharmacol. Exp. Ther. 271:1558, 1994) in a modified Tris-HCl buffer (50 mM Tris-HCl, pH 7.4, 12.5 mM MgCl2, 2 mM EDTA) was used. […] Receptor proteins were filtered and washed, the filters were then counted to determine [^3H]MK-912 specifically bound. […]
Would you kindly list inhibition at 0.1 µM for each of these compounds?
Response body: numeric value in %, unit text excluded.

inhibition at 0.1 µM reported for this compound Cc1ccc2c(c1)c1c(n2CC2(O)CCCc3ccncc32)CCN(C)C1 (single isomer, unassigned) [ii-113a] : 9

inhibition at 0.1 µM reported for this compound Cc1ccc2c(c1)c1c(n2/C=C2\CCCc3ccccc32)CCN(C)C1 [i-3] : 92

inhibition at 0.1 µM reported for this compound Cc1ccc2c(c1)c1c(n2CC2(O)CCCc3cnccc32)CCN(C)C1 (single isomer, unassigned) [ii-74a] : 14

inhibition at 0.1 µM reported for this compound Cc1ccc2c(c1)c1c(n2/C=C2/CCCc3ccccc32)CCN(C)C1 [i-2] : 98

* * *

measurement-target: human recombinant adrenergic α2A receptor (Homo sapiens, UniProt P08913)
Construct: expressed in transfected cells; host or cells: insect Sf9 cells
Sequence (P08913 1-465): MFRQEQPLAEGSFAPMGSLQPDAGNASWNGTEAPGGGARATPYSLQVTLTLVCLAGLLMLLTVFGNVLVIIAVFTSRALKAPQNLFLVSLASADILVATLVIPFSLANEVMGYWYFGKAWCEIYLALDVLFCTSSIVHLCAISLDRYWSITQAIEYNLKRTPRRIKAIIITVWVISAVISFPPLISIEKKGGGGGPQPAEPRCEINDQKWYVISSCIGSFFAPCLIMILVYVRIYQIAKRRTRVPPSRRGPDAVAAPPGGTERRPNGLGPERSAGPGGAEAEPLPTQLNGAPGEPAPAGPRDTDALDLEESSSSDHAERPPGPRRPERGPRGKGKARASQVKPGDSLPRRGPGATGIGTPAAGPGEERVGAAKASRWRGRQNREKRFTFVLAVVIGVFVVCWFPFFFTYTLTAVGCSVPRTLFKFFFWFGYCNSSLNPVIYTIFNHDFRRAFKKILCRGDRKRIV
assay-explanation: Adrenergic α2A radioligand binding ([3H]MK-912)
measurement-parameters: 0.1 μM compound; 0.1 µM
Would you kindly list Percentage inhibition of ligand binding, Adrenergic α2A for each of these molecules?
Response body: numeric value in %, unit text excluded.

Percentage inhibition of ligand binding, Adrenergic α2A reported for this molecule Cc1ccc2c(c1)c1c(n2CC2(O)CCc3ccccc32)CCN(C)C1 (single isomer, unassigned) [ii-111b] : 22

Percentage inhibition of ligand binding, Adrenergic α2A reported for this molecule Cc1ccc2c(c1)c1c(n2CC2(O)CCCc3ncccc32)CCN(C)C1 (single isomer, unassigned) [ii-112b] : 4

Percentage inhibition of ligand binding, Adrenergic α2A reported for this molecule Cc1ccc2c(c1)c1c(n2CC2(O)CCCc3cnccc32)CCN(C)C1 (single isomer, unassigned) [ii-74b] : 12

Percentage inhibition of ligand binding, Adrenergic α2A reported for this molecule Cc1ccc2c(c1)c1c(n2CC2(O)CCCc3ncccc32)CCN(C)C1 (single isomer, unassigned) [ii-112a] : 15

Percentage inhibition of ligand binding, Adrenergic α2A reported for this molecule Cc1ccc2c(c1)c1c(n2CC2(O)CCc3ccccc32)CCN(C)C1 (single isomer, unassigned) [ii-111a] : 45

Percentage inhibition of ligand binding, Adrenergic α2A reported for this molecule Cc1ccc2c(c1)c1c(n2CC2(O)CCCc3ccncc32)CCN(C)C1 (single isomer, unassigned) [ii-113b] : 8

* * *

Would you kindly list Percentage inhibition of ligand binding, Adrenergic α1B for each of these compounds?
measurement-target: rat adrenergic α1B receptor (Rattus norvegicus)
Construct: rat adrenergic α1B receptor obtained from Wistar Rat liver; from tissue; host or cells: Wistar rat liver
Sequence (P15823 whole entry): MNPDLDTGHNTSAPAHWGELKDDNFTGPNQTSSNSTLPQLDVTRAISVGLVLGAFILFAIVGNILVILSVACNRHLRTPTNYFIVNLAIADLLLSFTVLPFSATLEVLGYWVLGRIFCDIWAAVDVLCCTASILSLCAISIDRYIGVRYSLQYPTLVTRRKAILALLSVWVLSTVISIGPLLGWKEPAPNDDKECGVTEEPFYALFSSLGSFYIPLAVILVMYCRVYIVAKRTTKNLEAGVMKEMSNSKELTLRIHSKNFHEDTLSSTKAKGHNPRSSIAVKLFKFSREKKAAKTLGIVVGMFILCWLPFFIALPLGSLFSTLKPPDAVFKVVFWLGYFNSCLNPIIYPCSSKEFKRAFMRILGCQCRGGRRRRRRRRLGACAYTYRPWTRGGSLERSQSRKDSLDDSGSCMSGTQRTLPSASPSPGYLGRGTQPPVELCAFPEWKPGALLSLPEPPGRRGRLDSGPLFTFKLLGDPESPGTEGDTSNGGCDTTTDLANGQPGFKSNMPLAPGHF
assay-explanation: Adrenergic α1B radioligand binding ([3H]Prazosin)
measurement-parameters: 0.1 μM compound; 0.1 µM
Response body: numeric value in %, unit text excluded.

Result for Cc1ccc2c(c1)c1c(n2CC2(O)CCCc3cnccc32)CCN(C)C1 (single isomer, unassigned) [ii-74a] , tested on rat adrenergic α1B receptor (Rattus norvegicus), Percentage inhibition of ligand binding, Adrenergic α1B: 12

Result for Cc1ccc2c(c1)c1c(n2CC2(O)CCc3ccccc32)CCN(C)C1 (single isomer, unassigned) [ii-111a] , tested on rat adrenergic α1B receptor (Rattus norvegicus), Percentage inhibition of ligand binding, Adrenergic α1B: 94

Result for Cc1ccc2c(c1)c1c(n2CC2(O)CCCc3ccncc32)CCN(C)C1 (single isomer, unassigned) [ii-113b] , tested on rat adrenergic α1B receptor (Rattus norvegicus), Percentage inhibition of ligand binding, Adrenergic α1B: 82

Result for Cc1ccc2c(c1)c1c(n2CC2(O)CCc3ccccc32)CCN(C)C1 (single isomer, unassigned) [ii-111b] , tested on rat adrenergic α1B receptor (Rattus norvegicus), Percentage inhibition of ligand binding, Adrenergic α1B: 51

Result for Cc1ccc2c(c1)c1c(n2CC2(O)CCCc3ncccc32)CCN(C)C1 (single isomer, unassigned) [ii-112b] , tested on rat adrenergic α1B receptor (Rattus norvegicus), Percentage inhibition of ligand binding, Adrenergic α1B: 14

Result for Cc1ccc2c(c1)c1c(n2CC2(O)CCCc3ccncc32)CCN(C)C1 (single isomer, unassigned) [ii-113a] , tested on rat adrenergic α1B receptor (Rattus norvegicus), Percentage inhibition of ligand binding, Adrenergic α1B: 5

Result for Cc1ccc2c(c1)c1c(n2CC2(O)CCCc3cnccc32)CCN(C)C1 (single isomer, unassigned) [ii-74b] , tested on rat adrenergic α1B receptor (Rattus norvegicus), Percentage inhibition of ligand binding, Adrenergic α1B: 83

Result for Cc1ccc2c(c1)c1c(n2CC2(O)CCCc3ncccc32)CCN(C)C1 (single isomer, unassigned) [ii-112a] , tested on rat adrenergic α1B receptor (Rattus norvegicus), Percentage inhibition of ligand binding, Adrenergic α1B: 79

* * *

measurement-target: human recombinant serotonin (5-Hydroxytryptamine) 5-HT2C receptor (Homo sapiens)
Construct: expressed in transfected cells; host or cells: CHO-K1
Sequence (P28335 33-458): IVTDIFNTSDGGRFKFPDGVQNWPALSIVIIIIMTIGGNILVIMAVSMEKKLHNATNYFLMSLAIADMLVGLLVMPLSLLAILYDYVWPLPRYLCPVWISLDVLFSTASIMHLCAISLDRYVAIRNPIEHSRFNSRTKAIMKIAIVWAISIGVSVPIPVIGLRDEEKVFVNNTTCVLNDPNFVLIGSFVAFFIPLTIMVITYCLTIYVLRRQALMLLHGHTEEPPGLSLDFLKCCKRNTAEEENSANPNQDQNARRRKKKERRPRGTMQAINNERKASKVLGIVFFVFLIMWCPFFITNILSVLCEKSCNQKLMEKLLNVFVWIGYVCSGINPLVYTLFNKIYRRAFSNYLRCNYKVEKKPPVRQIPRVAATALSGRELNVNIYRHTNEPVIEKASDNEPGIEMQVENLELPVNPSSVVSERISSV
assay-explanation: Serotonin 5-HT2C radioligand binding ([3H]Mesulergine)
measurement-parameters: 0.1 μM compound; read-out: Percentage inhibition of ligand binding, Serotonin 5-HT2C
Would you kindly list inhibition at 0.1 µM for each of these compounds?
Response body: numeric value in %, unit text excluded.

inhibition at 0.1 µM reported for this compound Cc1ccc2c(c1)c1c(n2CC2(O)CCCc3ncccc32)CCN(C)C1 (single isomer, unassigned) [ii-112a] : 42

inhibition at 0.1 µM reported for this compound Cc1ccc2c(c1)c1c(n2/C=C2\CCCc3ccccc32)CCN(C)C1 [i-3] : 100

inhibition at 0.1 µM reported for this compound CN1CCc2c(c3cc(Cl)ccc3n2C=C2CCCCC2)C1 [i-1] : 98

inhibition at 0.1 µM reported for this compound Cc1ccc2c(c1)c1c(n2CC2(O)CCCc3ccncc32)CCN(C)C1 (single isomer, unassigned) [ii-113a] : 37

inhibition at 0.1 µM reported for this compound Cc1ccc2c(c1)c1c(n2/C=C2/CCCc3ccccc32)CCN(C)C1 [i-2] : 100
